Values from PubChem BioAssay (NCATS)

target-entity: Cytochrome P450 3A4 (Homo sapiens) (UniProt P08684)
Sequence (P08684 whole entry, looked up): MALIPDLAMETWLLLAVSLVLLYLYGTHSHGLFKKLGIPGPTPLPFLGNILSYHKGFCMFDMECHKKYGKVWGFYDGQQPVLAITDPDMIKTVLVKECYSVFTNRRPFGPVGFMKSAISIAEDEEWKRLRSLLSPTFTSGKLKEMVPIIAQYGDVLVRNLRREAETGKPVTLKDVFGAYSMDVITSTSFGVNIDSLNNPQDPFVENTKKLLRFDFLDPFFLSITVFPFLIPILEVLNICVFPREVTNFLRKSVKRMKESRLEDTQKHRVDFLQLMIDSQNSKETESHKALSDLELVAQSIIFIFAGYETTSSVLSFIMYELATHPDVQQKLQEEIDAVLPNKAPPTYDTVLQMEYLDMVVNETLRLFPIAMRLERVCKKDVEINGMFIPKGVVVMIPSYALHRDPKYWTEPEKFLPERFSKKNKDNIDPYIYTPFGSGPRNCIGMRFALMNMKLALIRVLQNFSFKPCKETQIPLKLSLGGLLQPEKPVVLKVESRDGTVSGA
assay-notes: qHTS Assay for Inhibitors and Substrates of Cytochrome P450 3A4 (AID 884); also: nearly all actives have a fitted effect of over 50% in size
conditions: recombinant CYP3A4, Luciferin-PPXE luminescence; series mostly up to 57.1 µM
Method: NIH Molecular Libraries Screening Centers Network [MLSCN] NIH Chemical Genomics Center [NCGC] The P450 gene superfamily is involved in the metabolism and clearance of xenobiotics. […] The luciferin is then measured by luminescence after the addition of a luciferase detection reagent. […] Inhibitors and some substrates limit the production of luciferin, and decrease measured luminescence. […]
Inconclusive results are not listed. The source made the active and inactive calls. Calls follow the shape of the dose curve; as a rule, active = well fitted inhibition curve with a large enough effect; inconclusive = small, poorly fitted or top-dose-only effect; inactive = no such curve, though single readings can be large or run the other way.
Would you mind answering with one of these outcomes? TRUE for active, FALSE for inactive

// param item: COCCN(CCOC)c1nc(C)nc2c1nc(-c1ccccc1)n2CCCN1CCCCC1C (stereo unspecified) ; yields the recorded call
TRUE

// param item: COc1ccccc1-c1cncnc1NCCc1cnc[nH]1 ; yields the recorded call
TRUE

// param item: CCCn1c(-c2ccc(F)cc2)nc2c(N3CCCN(Cc4ccccc4)CC3)nc(C)nc21 ; yields the recorded call
TRUE

// param item: Cc1ccccc1-c1nccc(NCc2cccs2)n1 ; yields the recorded call
TRUE

// param item: c1csc(CNc2ccnc(-c3ccoc3)n2)c1 ; yields the recorded call
TRUE

// param item: Cc1noc(C)c1C(=O)N1CCC2(CC1)CCN(c1cccc(-c3ccccc3)c1)CC2 ; yields the recorded call
FALSE
